Data origin: patent US6150385A

Molecular target: HCMV polymerase (Human cytomegalovirus, UniProt P08546)
Construct: made in house; host or cells: SF-9 insect cells infected with recombinant baculovirus
Sequence (P08546 whole entry): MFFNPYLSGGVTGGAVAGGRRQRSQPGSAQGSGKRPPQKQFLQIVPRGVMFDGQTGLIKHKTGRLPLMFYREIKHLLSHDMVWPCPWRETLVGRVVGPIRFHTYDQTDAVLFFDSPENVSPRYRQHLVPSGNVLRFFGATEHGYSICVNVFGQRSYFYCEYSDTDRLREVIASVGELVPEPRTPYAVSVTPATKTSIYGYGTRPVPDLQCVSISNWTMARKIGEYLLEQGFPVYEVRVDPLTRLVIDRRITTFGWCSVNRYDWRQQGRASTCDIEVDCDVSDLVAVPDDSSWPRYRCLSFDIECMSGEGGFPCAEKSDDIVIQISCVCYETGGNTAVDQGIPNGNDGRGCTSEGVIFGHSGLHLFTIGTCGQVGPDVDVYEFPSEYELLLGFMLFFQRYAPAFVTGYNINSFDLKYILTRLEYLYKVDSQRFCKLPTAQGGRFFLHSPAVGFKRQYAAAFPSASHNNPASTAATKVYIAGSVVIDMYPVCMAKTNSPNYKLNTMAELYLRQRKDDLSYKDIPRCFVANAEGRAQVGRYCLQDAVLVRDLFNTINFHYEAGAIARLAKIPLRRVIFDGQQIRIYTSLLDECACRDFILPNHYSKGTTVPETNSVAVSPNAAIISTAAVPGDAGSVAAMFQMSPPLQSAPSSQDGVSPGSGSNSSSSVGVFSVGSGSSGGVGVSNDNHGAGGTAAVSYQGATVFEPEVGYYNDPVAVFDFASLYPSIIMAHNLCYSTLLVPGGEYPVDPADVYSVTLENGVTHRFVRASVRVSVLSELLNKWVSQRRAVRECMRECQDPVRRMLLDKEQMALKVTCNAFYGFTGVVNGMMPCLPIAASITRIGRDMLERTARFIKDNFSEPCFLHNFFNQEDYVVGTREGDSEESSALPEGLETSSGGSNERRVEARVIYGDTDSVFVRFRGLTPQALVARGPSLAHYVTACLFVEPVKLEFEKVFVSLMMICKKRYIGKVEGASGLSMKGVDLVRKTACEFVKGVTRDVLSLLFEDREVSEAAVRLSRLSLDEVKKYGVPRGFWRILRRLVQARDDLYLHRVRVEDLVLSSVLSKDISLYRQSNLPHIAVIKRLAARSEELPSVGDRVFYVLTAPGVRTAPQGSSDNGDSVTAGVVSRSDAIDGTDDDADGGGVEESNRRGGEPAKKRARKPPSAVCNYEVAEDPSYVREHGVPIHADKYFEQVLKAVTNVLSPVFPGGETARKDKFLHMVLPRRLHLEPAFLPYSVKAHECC
Test: HCMV polymerase assay (scintillation proximity assay)
Format: biochemical
Details: percentage of inhibition at 25 μM concentration in CMV polymerase assay
Method: The compounds of the present invention are tested in an polymerase assay to show activity described below, which is indicative of a compound's activity and thus of its use as an anti-viral agent. […]
Returns one of 1 or 0; 1 when inhibition at 25 µM is >= 50%.

>>> class_name("CC(C)c1cc(C(C)C)c(C(=O)Nc2nnc(NCCCn3ccnc3)s2)c(C(C)C)c1")
1
>>> class_name("O=C(/C=C/c1ccccc1Cl)Nc1nnc(NCC(c2ccccc2)c2ccccc2)s1")
1
>>> class_name("O=C(Nc1nnc(NCC(c2ccccc2)c2ccccc2)s1)c1ccc2c(c1)C(=O)OC2=O")
1
>>> class_name("CCCCCCCC/C=C/CCCCCCCC(=O)Nc1nnc(NCCNC(C)=O)s1")
1
>>> class_name("NS(=O)(=O)c1ccc(CCNc2nnc(NC(=O)CCCCCl)s2)cc1")
0
>>> class_name("N#Cc1ccc(C(=O)Nc2nnc(NCc3cccs3)s2)cc1")
0
>>> class_name("CCOC(=O)N1CCC(Nc2nnc(NC(=O)c3c(OCC)ccc4ccccc34)s2)CC1")
1
>>> class_name("O=C(Nc1nnc(NCC2CCCCC2)s1)c1ccc(F)cc1F")
0

* * *

Molecular target: HCMV polymerase (Human cytomegalovirus, UniProt P08546)
Construct: made in house; host or cells: SF-9 insect cells infected with recombinant baculovirus
Test: HCMV polymerase assay (scintillation proximity assay)
Type: biochemical
Settings: percentage of inhibition at 25 μM concentration in CMV polymerase assay
Listed here are molecules together with their documented inhibition at 25 µM.
RECORDED ENDPOINT: inhibition at 25 µM (%)

>>> assay_result("O=C(Nc1nnc(NCCCCc2ccccc2)s1)c1cc2ccccc2s1")
78.7
>>> assay_result("O=C(Nc1nnc(NCCCNC2CCCCC2)s1)c1ccc(C(F)(F)F)cc1")
62.5
>>> assay_result("O=C(Nc1nnc(NCC2CCCO2)s1)c1cc2ccccc2s1 (centres unmarked)")
25
>>> assay_result("Cc1ccc(C(=O)Nc2nnc(NCCCCc3ccccc3)s2)cc1")
29.6
>>> assay_result("O=C(Nc1nnc(NCc2ccncc2)s1)c1ccc2c(c1)C(=O)OC2=O")
77.7
>>> assay_result("O=C(CCCCCl)Nc1nnc(NCCSc2ccccc2)s1")
40
>>> assay_result("CCCCCCCCCCCNc1nnc(NC(=O)CCCCCl)s1")
64.2
>>> assay_result("N#Cc1ccc(C(=O)Nc2nnc(NC3CCCCCC3)s2)cc1")
64.9
>>> assay_result("O=C(Nc1nnc(NC2CCN(Cc3ccccc3)CC2)s1)c1ccc2c(c1)C(=O)OC2=O")
67.3
>>> assay_result("CCCCCCCC/C=C/CCCCCCCC(=O)Nc1nnc(NCc2ccccn2)s1")
49.9
>>> assay_result("O=C(CCCCCl)Nc1nnc(NCC(c2ccccc2)c2ccccc2)s1")
47.4

* * *

Listed here are molecules together with their documented inhibition at 25 µM.
Target: HCMV polymerase (Human cytomegalovirus)
Construct: made in house; host or cells: SF-9 insect cells infected with recombinant baculovirus
Test: HCMV polymerase assay (scintillation proximity assay)
Type: biochemical
Conditions: percentage of inhibition at 25 μM concentration in CMV polymerase assay
RECORDED ENDPOINT: inhibition at 25 µM (%)

>>> assay_result("O=C(Nc1nnc(NCCNc2ccccc2)s1)c1cc2ccccc2s1 [compound 236]")
41.6
>>> assay_result("O=C(Nc1nnc(NCCCN2CCCC2=O)s1)c1cccc([N+](=O)[O-])c1 [compound 135]")
56.6
>>> assay_result("O=C(Nc1nnc(NCc2cccs2)s1)c1c(Cl)cccc1Cl [compound 118]")
61.2
>>> assay_result("CC1(C)C2CC[C@@H](CNc3nnc(NC(=O)CCCCCl)s3)C1C2 (stereo partly drawn) [compound 312]")
33.9
>>> assay_result("O=C(Nc1nnc(NCc2ccc(Cl)c(Cl)c2)s1)c1c(Cl)cccc1Cl [compound 73]")
69.1
>>> assay_result("O=C(Nc1nnc(NCCSc2ccccc2)s1)c1ccc(F)cc1F [compound 205]")
44.9
>>> assay_result("CCSCCNc1nnc(NC(=O)c2ccc(Br)cc2)s1 [compound 309]")
34
>>> assay_result("O=C(Nc1nnc(NCc2ccc(Cl)c(Cl)c2)s1)c1ccc([N+](=O)[O-])o1 [compound 350]")
30.3
>>> assay_result("O=C(Nc1nnc(NC2CCCc3ccccc32)s1)c1c(Cl)cccc1Cl (stereo not drawn) [compound 76]")
68.5
>>> assay_result("O=C(Nc1nnc(NCCc2ccccc2)s1)c1ccc(I)cc1 [compound 415]")
24.6
>>> assay_result("CCCCCCCC/C=C/CCCCCCCC(=O)Nc1nnc(NCC2CCCO2)s1 (stereo not drawn) [compound 246]")
40.9
>>> assay_result("O=C(Nc1nnc(NCC2CCCCC2)s1)c1ccc(Cl)c(Cl)c1 [compound 384]")
27.2
>>> assay_result("O=C(Nc1nnc(NCCCCc2ccccc2)s1)c1ccc2c(c1)C(=O)OC2=O [compound 11]")
99.6
>>> assay_result("CCOc1ccc2ccccc2c1C(=O)Nc1nnc(NCCc2ccccc2)s1 [compound 270]")
38.4
>>> assay_result("CCCCCCCC/C=C/CCCCCCCC(=O)Nc1nnc(NCC2CCCCC2)s1 [compound 285]")
36.7
>>> assay_result("O=C(/C=C/c1ccccc1)Nc1nnc(NCCN2CCCC2)s1 [compound 432]")
23
>>> assay_result("O=C(Nc1nnc(NC2CCCCCC2)s1)c1ccc(I)cc1 [compound 288]")
36.2
>>> assay_result("CC(C)c1cc(C(C)C)c(C(=O)Nc2nnc(NCC(c3ccccc3)c3ccccc3)s2)c(C(C)C)c1 [compound 176]")
49.4
>>> assay_result("CCCCCCCC/C=C/CCCCCCCC(=O)Nc1nnc(NCc2ccc(F)cc2)s1 [compound 48]")
81.5
>>> assay_result("O=C(Nc1nnc(NCCCCc2ccccc2)s1)c1ccc(I)cc1 [compound 59]")
74.6
>>> assay_result("O=C(Nc1nnc(NCCN2CCCC2)s1)c1c(Cl)cccc1Cl [compound 370]")
28.3
>>> assay_result("O=C(Nc1nnc(NCc2cccnc2)s1)c1cc2ccccc2s1 [compound 301]")
34.8
>>> assay_result("CCSCCNc1nnc(NC(=O)c2ccc(I)cc2)s1 [compound 148]")
54.6
>>> assay_result("O=C(Nc1nnc(NC2CCCCCC2)s1)c1cc2ccccc2s1 [compound 256]")
39.8
>>> assay_result("CC(C)c1cc(C(C)C)c(C(=O)Nc2nnc(NC3CCN(Cc4ccccc4)CC3)s2)c(C(C)C)c1 [compound 265]")
39.1
>>> assay_result("CC(C)c1cc(C(C)C)c(C(=O)Nc2nnc(NCc3ccc(F)cc3)s2)c(C(C)C)c1 [compound 401]")
25.5
>>> assay_result("O=C(Nc1nnc(NCC(c2ccccc2)c2ccccc2)s1)c1cc2ccccc2s1 [compound 187]")
47.2
>>> assay_result("O=C(Nc1nnc(NCCN2CCOCC2)s1)c1cc2ccccc2s1 [compound 453]")
21.2
>>> assay_result("O=C(Nc1nnc(NCc2ccccn2)s1)c1c(Cl)cccc1Cl [compound 241]")
41.3
>>> assay_result("O=C(Nc1nnc(NCCN2CCOCC2)s1)c1cccc([N+](=O)[O-])c1 [compound 469]")
20.1
>>> assay_result("O=C(/C=C/c1ccccc1)Nc1nnc(NCCCN2CCCC2=O)s1 [compound 130]")
58.2
>>> assay_result("CCOc1ccc2ccccc2c1C(=O)Nc1nnc(NCC(c2ccccc2)c2ccccc2)s1 [compound 55]")
77.6
>>> assay_result("O=C(Nc1nnc(NCCCNC2CCCCC2)s1)c1cccc([N+](=O)[O-])c1 [compound 137]")
56.4
